tested on: human primary T-cells, IL-2 stimulated proliferation (JAK-1 and JAK-3 dependent; reported as JAK3 activity); experiment: Human primary T-cell proliferation stimulated by IL-2 (Example 3); assay type: cell-based; conditions: Homo sapiens, T-cell, tested under conditions described in Example 3 (IL-2 stimulated human primary T-cell proliferation); read-out: ability to inhibit JAK3 activity, IC50 range (Table V)
Overview of reported IC50 across a group of compounds:

Guide cases for IC50, answers given:
Cc1cnc(Nc2ccc(N3C[C@@H](C)N[C@@H](C)C3)nc2)nc1Nc1ccc2oc(=O)[nH]c2c1 [II-131]; < 500 nM
Cc1cnc(Nc2ccc3c(c2)CCCN(C)C3=O)nc1Nc1ccc2oc(=O)[nH]c2c1 [IV-21]; < 500 nM
Cc1cc(C)c(Nc2ncc(C)c(Nc3ccc4oc(=O)[nH]c4c3)n2)c(C)c1 [IV-61]; > 10000 nM

Prompt: What value of measured IC50 is listed for Cc1cnc(Nc2ccc(Br)c(C(F)(F)F)c2)nc1Nc1ccc2oc(=O)[nH]c2c1 [Compound I-188] ?
Response: < 500 nM

Prompt: What value of measured IC50 is listed for Cc1cnc(Nc2cnc(N3CC4CC3CN4CC3CC3)c(F)c2)nc1Nc1ccc2oc(=O)[nH]c2c1 (centres unmarked) [II-54] ?
Response: < 500 nM

Prompt: What value of measured IC50 is listed for CCNC(C)c1cc(Nc2ncc(C)c(Nc3ccc4oc(=O)[nH]c4c3)n2)cc(C(F)(F)F)c1 (centres unmarked) [Compound I-462] ?
Response: < 500 nM

Prompt: What value of measured IC50 is listed for Cc1cnc(Nc2ccc(N3CC4(C)CN(C)CC(C)(C3)C4)nc2)nc1Nc1ccc2oc(=O)[nH]c2c1 [II-117] ?
Response: < 500 nM

Prompt: What value of measured IC50 is listed for Cc1cnc(Nc2ccc(C(N)=O)c(N3CCC(C)CC3)c2)nc1Nc1ccc2oc(=O)[nH]c2c1 [Compound I-156] ?
Response: < 500 nM
